- TEST_SYSTEM: purified integrase (Human immunodeficiency virus type 1 group M subtype B, UniProt P12497)
Give Ki for every item shown.

compound=CN(C)S(=O)(=O)c1cc(F)ccc1CNC(=O)c1nc(C2CCOCC2)n(C)c(=O)c1O value_observed="3 to 50 nM"
compound="Cn1cnnc1-c1cc(F)ccc1CNC(=O)c1nc(C2CCOC2)n(C)c(=O)c1O (stereo not shown)" value_observed="1 to 3 nM"
compound="Cn1c(C2CCOC2)nc(C(=O)NCc2ccc(F)cc2-n2cncn2)c(O)c1=O (stereo not shown)" value_observed="1 to 3 nM"
compound="Cn1ncnc1-c1cc(F)ccc1CNC(=O)c1nc(C2CCOC2)n(C)c(=O)c1O (stereo not shown)" value_observed="3 to 50 nM"
compound=Cn1c(C2CCOCC2)nc(C(=O)NCc2ccc(F)cc2S(C)(=O)=O)c(O)c1=O value_observed="3 to 50 nM"

// for each compound below, give its Ki
1. Cn1c(C2CCOC2)nc(C(=O)NCc2ccccc2N2CCCCS2(=O)=O)c(O)c1=O (stereo not shown)
2. Cn1c(C2CCOCC2)nc(C(=O)NCc2ccc(F)cc2-n2cncn2)c(O)c1=O
3. Cc1cnnn1-c1cc(F)ccc1CNC(=O)c1nc(C2CCOCC2)n(C)c(=O)c1O
4. CN(C)S(=O)(=O)c1cc(F)ccc1CNC(=O)c1nc(C2CCOC2)n(C)c(=O)c1O (stereo not shown)
5. Cn1c(C2CCOC2)nc(C(=O)NCc2ccc(F)cc2S(C)(=O)=O)c(O)c1=O (stereo not shown)
6. Cn1ncnc1-c1cc(F)ccc1CNC(=O)c1nc(C2CCOCC2)n(C)c(=O)c1O

3 to 50 nM
3 to 50 nM
3 to 50 nM
3 to 50 nM
3 to 50 nM
1 to 3 nM

Value sought for every listed compound: Ki.
1. Cn1cnnc1-c1cc(F)ccc1CNC(=O)c1nc(C2CCOCC2)n(C)c(=O)c1O
2. Cn1c(C2CCOCC2)nc(C(=O)NCc2ccccc2N2CCCCS2(=O)=O)c(O)c1=O
3. Cn1c(C2CCOC2)nc(C(=O)NCc2ccc(F)cc2N2CCN(CCO)C2=O)c(O)c1=O (stereo not shown)
4. Cc1ncnn1-c1cc(F)ccc1CNC(=O)c1nc(C2CCOC2)n(C)c(=O)c1O (stereo not shown)
5. Cc1cnnn1-c1cc(F)ccc1CNC(=O)c1nc(C2CCOC2)n(C)c(=O)c1O (stereo not shown)

["1 to 3 nM", "3 to 50 nM", "1 to 3 nM", "3 to 50 nM", "3 to 50 nM"]

Please state, for each entry, its recorded Ki.
1. CN1CCN(c2cc(F)ccc2CNC(=O)c2nc(C3CCOC3)n(C)c(=O)c2O)C1=O (stereo not shown)
2. COCCN1CCN(c2cc(F)ccc2CNC(=O)c2nc(C3CCOC3)n(C)c(=O)c2O)C1=O (stereo not shown)
3. Cc1ncnn1-c1cc(F)ccc1CNC(=O)c1nc(C2CCOCC2)n(C)c(=O)c1O

1. 1 to 3 nM
2. 1 to 3 nM
3. 3 to 50 nM
